I'd appreciate it if you could supply neutralization IC50 values for the items below.
Target: Env of HIV-1 strain 251-18 (HIV-1)
Test: cell-based or functional assay
Numbers only, in µg/mL.

Binder	neutralization IC50 / µg/mL
8ANC3630 (antibody, V domains shown) VH: QIHLVQSGTEVKKPGSSVTVSCKAYGVNTFGLYAVNWVRQAPGQSLEYIGQIWRWKSSASHHFRGRVLISAVDLTGSSPPISSLEIKNLTSDDTAVYFCTTTSTYDRWSGLHHDGVMAFSSWGQGTLISVSA VL: DIQMTQSPSTLSASIGDTVRISCRASQSITGGWLAWYHQRPGKAPRLLIYRGSRLLGGVPSRFSGSAAGTDFTLTIANLQAEDFGTFYCQQYDTYPGTFGQGTKVEVKR	0.73

Please turn your attention to the following entry.
Value of measured neutralization IC50 for the entry γ52κ3 (antibody, V domains shown) VH: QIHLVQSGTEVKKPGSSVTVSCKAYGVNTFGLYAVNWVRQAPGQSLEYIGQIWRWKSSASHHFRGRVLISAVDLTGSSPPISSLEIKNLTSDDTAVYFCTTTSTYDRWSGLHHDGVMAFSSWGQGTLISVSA VL: DIQMTQSPSTLSASIGDTVRISCRASQSITGNWLAWYHQRPGKAPRLLIYRGSRLLGGVPSRFSGSAAGTDFTLTIANLQAEDFGTFYCQQYDTYPGTFGQGTKVEVKR : 14.5
